# Test system: MDA-MB-231
# assay.method.text: Antiproliferative activity against human MDA-MB-231 cells ectopically overexpressing GLUT1 incubated for 72 hrs by MTT assay relative to normal cells
# Format: functional, cell-based
Active and inactive are the calls of the source. The calls are words filed in the database; no cut-off is given here.
recorded.endpoint: Activity

{"molecule": "O=C(CCSSc1ccccc1/C=N/NC(=O)c1ccccc1)OC[C@H]1OC(O)[C@H](O)[C@@H](O)[C@@H]1O (some centres undefined)", "measured.value": "Active"}
{"molecule": "COC(=O)CCSSc1ccccc1/C=N/NC(=O)c1ccccc1", "measured.value": "Active"}
{"molecule": "O=C(CCSSc1ccccc1/C=N/NC(=O)c1ccccc1)OC[C@H]1OC(O)C[C@@H](O)[C@@H]1O (some centres undefined)", "measured.value": "Active"}
{"molecule": "O=C(CCSSc1ccccc1/C=N/NC(=O)c1ccccc1)N[C@H]1C(O)O[C@H](CO)[C@@H](O)[C@@H]1O (some centres undefined)", "measured.value": "Active"}
